This listing pairs compounds with measured inhibition at 20 µM.
Target: KRas G12D/Q61H double mutant (Homo sapiens (Human), UniProt P01116, G12D/Q61H)
Sequence (P01116-2 other isoform, or with tags, fused parts or gaps G12D/Q61H): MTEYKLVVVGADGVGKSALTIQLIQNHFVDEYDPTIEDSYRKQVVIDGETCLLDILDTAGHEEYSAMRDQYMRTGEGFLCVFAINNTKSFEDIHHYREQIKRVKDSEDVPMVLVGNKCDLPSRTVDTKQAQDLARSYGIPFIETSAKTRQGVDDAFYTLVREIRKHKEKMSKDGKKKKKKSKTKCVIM
Assay: Ras GTP binding domain inhibition assay (labeled GTP)
Conditions: 20 μM compound; read-out: % Inhibition at 20 μM KRas G12D Q61H
Description: Buffer-I: • 50 mM Tris, pH 7.5 • 150 mM NaCl (optional) • 1 mM MgCl2 • 1 mM DTT. • KRas G12D mutant protein was expressed as a His-tagged protein. […] Then 22 μl of Cy3-GTP or Cy5-GTP was added to each well. The labeled GTP was incubated for 45 min. at room temperature. • Following GTP incubation, wells were washed 3× in Buffer-I, and 200 μl of Buffer-I were added to each well. • Following washes, the amount of bound labeled-GTP was measured with an Eppendorf AF2200 plate reader. […]

| compound | inhibition at 20 µM |
| --- | --- |
| Nc1nc(-c2ccccn2)nn1C(=O)c1ccc(N2CCNC2=O)cc1 | 25 to 50% |
| Oc1nc(-c2ccccn2)nc2sc3c(c12)CCNC3 [drawing 2851] | 51 to 75% |
| OCC1CCCN(c2nc(-c3ccccn3)nc3scc(-c4ccccc4)c23)C1 (centres unmarked) | 25 to 50% |
| CN(Cc1ccc(OCc2ccccn2)cc1)Cc1ccccc1OC(F)(F)F | 1 to 25% |
| O=C(Nc1nnc(-c2ccccn2)[nH]1)c1ccc(Cn2ccccc2=O)o1 | 25 to 50% |

---

Target: Rho-A (Homo sapiens (Human), UniProt P61586)
Sequence (P61586 whole entry, the tested form may be a part): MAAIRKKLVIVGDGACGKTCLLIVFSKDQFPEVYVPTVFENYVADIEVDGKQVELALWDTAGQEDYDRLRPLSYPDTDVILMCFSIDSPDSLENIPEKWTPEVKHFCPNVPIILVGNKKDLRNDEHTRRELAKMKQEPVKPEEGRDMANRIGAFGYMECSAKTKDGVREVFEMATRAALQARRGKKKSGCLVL
Test: Scintillation Proximity Assay (SPA), GTP affinity for binding domain

| compound | Kd, nM |
| --- | --- |
| Nc1nc2c(ncn2[C@@H]2O[C@H](COP(=O)(O)OP(=O)(O)OP(=O)(O)O)[C@@H](O)[C@H]2O)c(=O)[nH]1 [GTP] | 129 |

---

This listing pairs compounds with measured inhibition at 20 µM.
Target: KRas G12C mutant (Homo sapiens (Human), UniProt P01116, G12C)
Sequence (P01116-2 other isoform, or with tags, fused parts or gaps G12C): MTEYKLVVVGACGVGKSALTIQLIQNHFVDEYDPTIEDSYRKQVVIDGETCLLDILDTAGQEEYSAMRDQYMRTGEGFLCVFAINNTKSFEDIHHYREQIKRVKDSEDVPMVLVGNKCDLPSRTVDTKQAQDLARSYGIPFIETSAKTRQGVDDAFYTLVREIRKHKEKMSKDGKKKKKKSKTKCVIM
Test: Ras GTP binding domain inhibition assay (labeled GTP)
Conditions: 20 μM compound; read-out: % Inhibition at 20 μM KRas G12C

| compound | inhibition at 20 µM |
| --- | --- |
| CN(C)Cc1ccc(-c2csc3c(O)nc(-c4ccccn4)nc23)cc1F [drawing 2845] | 25 to 50% |
| Cc1sc2c(O)nc(-c3ccccn3)nc2c1-c1ccccc1 [drawing 2905] | 25 to 50% |
| CNC(=O)c1ccc(-c2csc3c(O)nc(-c4ccccn4)nc23)cc1C [drawing 2885] | 25 to 50% |
| Cc1cc2nc(-c3ccccn3)nc(N)c2s1 [drawing 2836] | 1 to 25% |
| Oc1nc(-c2ccccn2)nc2c(-c3cc(F)cc(F)c3)csc12 [drawing 2900] | 51 to 75% |

---

Biological target: Rho-A (Homo sapiens (Human))
Assay: Rho inhibition assay (labeled GTP)
Type: binding
Settings: read-out: Rho-A % Inh.
measureName: inhibition at 20 µM

| compound | experimentalValue |
| --- | --- |
| Oc1nc(-c2ccncn2)nc2c(-c3cccc(C(F)(F)F)c3)csc12 [drawing 3925] | 1 to 25% |
| Oc1nc(-c2ccccn2)nc2c(-c3ccc(OC4CCCC4)cc3)csc12 [drawing 3735] | 25 to 50% |
| Cn1ccnc1-c1nc(O)c2scc(-c3ccccc3)c2n1 [drawing 3932] | 25 to 50% |
| Cc1c(Br)sc2c(O)nc(-c3ccccn3)nc12 [drawing 3793] | 51 to 75% |
| CC(C)(C(=O)Nc1ccnc(-c2ccccn2)n1)c1ccc(C#N)cc1 [drawing 3640] | 25 to 50% |
| Cc1sc2c(O)nc(-c3nccn3C)nc2c1-c1ccc(OCC(C)C)nc1 [drawing 3918] | 1 to 25% |
| COc1cnc(CNC(=O)c2sc3c(O)nc(-c4ccccn4)nc3c2C)[nH]c1=O [drawing 3842] | 1 to 25% |
| Oc1nc(-c2ccccn2)nc2c(-c3ccc(F)cc3F)csc12 [drawing 3743] | 51 to 75% |
| Nc1cccc(-c2csc3c(O)nc(-c4ccccn4)nc23)n1 [drawing 3832] | 76 to 100% |
| O=C(c1csc2c(O)nc(-c3ccccn3)nc12)N1CCN(c2ccc(F)cc2)CC1 [drawing 3643] | 51 to 75% |
| COCCNc1nc(-c2cccc(N)n2)nc2sc(-c3ccccc3)c(-c3ccccc3)c12 [drawing 3909] | 0% |
| O=C(NCCc1ccnc(O)n1)c1csc2nc(-c3ccccn3)nc(N3CCOCC3)c12 [drawing 3770] | 51 to 75% |
| Oc1nc(-c2ccccn2)nc2c(-c3ccccc3)c(-c3ccncc3)sc12 [drawing 3866] | 51 to 75% |
| OCC1(c2ccc(-c3nc(-c4ccccn4)nc(O)c3Oc3ccccc3)cc2)CC1 [drawing 3852] | 76 to 100% |
| Cn1ccnc1-c1nc(O)c2c(-c3ccccc3)c(-c3ccccc3)sc2n1 [drawing 3854] | 1 to 25% |
| COc1nccc(CCNC(=O)c2csc3nc(-c4ccccn4)nc(N4CCOCC4)c23)n1 [drawing 3769] | 25 to 50% |
| COc1ccc(N2CCN(C(=O)c3csc4c(O)nc(-c5ccccn5)nc34)CC2)c(OC)c1 [drawing 3648] | 51 to 75% |
| O=C(NCCc1cncs1)c1csc2nc(-c3ccccn3)nc(N3CCOCC3)c12 [drawing 3638] | 25 to 50% |

The origin of these recorded values is patent US10940139B2.
